subject-of-test: Pro-neuregulin-1, membrane-bound isoform (Homo sapiens)
method-notes: NRG1 binders on small-molecule microarrays, primary screen, psychiatric disease protein project, biochemical, small-molecule microarray, fluorescence 635/667 (AID 1075);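 note: score combines 667 nm spot fluorescence with signal to noise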
test-context: NRG1 binding, 635 nm fluorescence, higher = more signal
Overview of reported composite z-score across a group of compounds:
API doc: respond with a numeric literal and nothing else, no unit.

Examples from the recorded data:
INSERT INTO assay_data (compound, observed_measurement) VALUES
  ('COCCOC(=O)N1C(=O)[C@@]2(c3cc(C#CCCO)ccc31)[C@H](C(=O)N1CCc3cc(OC)c(OC)cc3C1)[C@H]1C(=O)O[C@H](c3ccccc3)[C@H](c3ccccc3)N1[C@@H]2c1ccc(O)cc1', 1.46),
  ('COc1ccc(C(=O)Nc2cccc(CN3C(=O)[C@]4(O[C@H](CCO)[C@@H]([Si](C)(C)c5ccc(OC)cc5)[C@@H]4C)c4ccccc43)c2)cc1', 0.621);

## Task Would you kindly share the measured composite z-score for O=C(c1ccccc1)N1Cc2ccccc2[C@@H]2OC(c3ccc(OCCCO)cc3)=N[C@]2(Cc2ccccc2)C1=O ?
## Result 1.32

## Task Would you kindly share the measured composite z-score for COC(=O)[C@@]1(Cc2ccc(F)cc2)[C@H]2c3cc(C(=O)N4CCCC4)n(Cc4cc(C)n(C)n4)c3C[C@H]2CN1C(=O)c1ccccc1 ?
## Result 2.3

## Task Would you kindly share the measured composite z-score for COCCOC(=O)N1C(=O)[C@@]2(c3cc(C#CC4(O)CCCCCC4)ccc31)[C@H](c1ccc(O)cc1)N1[C@H](c3ccccc3)[C@H](c3ccccc3)OC(=O)[C@H]1[C@@H]2C(=O)Nc1nc2ccccc2s1 ?
## Result 1.15

## Task Would you kindly share the measured composite z-score for O=C(NCc1ccccc1)[C@@]1(Cc2ccccc2)N=C(c2ccc(OCCCO)cc2)O[C@H]1c1ccccc1 ?
## Result 1.76

## Task Would you kindly share the measured composite z-score for CC(C)C[C@@H]1NC(=O)[C@H]2C[C@@H](C(=O)NCCCCCCN)[C@@H](c3ccc(O)cc3)N2C1=O ?
## Result 0.612

## Task Would you kindly share the measured composite z-score for COCCCNC(=O)[C@@]1(Cc2ccccc2N=[N+]=[N-])N=C(c2ccc(OCCCO)cc2)O[C@H]1c1ccccc1N=[N+]=[N-] ?
## Result 1.52

## Task Would you kindly share the measured composite z-score for O=C1OCCC=C[C@H]2OC34C=CCN(CCN5CCOCC5)C(=O)[C@H]3N(CCCCCCO)C(=O)[C@@H]4C12 (stereo partly specified) ?
## Result -0.0296

## Task Would you kindly share the measured composite z-score for CC(C)(C)OC(=O)CC[C@@]1(C(N)=O)N=C(c2ccc(OCCCO)cc2)O[C@@H]1c1ccccc1 ?
## Result 1.71

## Task Would you kindly share the measured composite z-score for CCOC(=O)C=Cc1cc([N+](=O)[O-])ccc1O ?
## Result -0.306

## Task Would you kindly share the measured composite z-score for COCCOC(=O)N1C(=O)[C@@]2(c3ccccc31)[C@H](c1ccc(O)cc1)N1[C@H](c3ccccc3)[C@H](c3ccccc3)OC(=O)[C@H]1[C@@H]2C(=O)NC[C@H](O)c1ccccc1 ?
## Result 1.8

## Task Would you kindly share the measured composite z-score for C=CCOC(=O)[C@@H]1[C@H]2C(=O)O[C@H](c3ccccc3)[C@H](c3ccccc3)N2[C@H](c2ccc(OCCOC(=O)[C@@H]3C[C@@H]4C(=O)N5CCC[C@H]5C(=O)N4[C@@H]3c3ccc(O)cc3)cc2)[C@@]12C(=O)Nc1ccc(I)cc12 ?
## Result 0.596

## Task Would you kindly share the measured composite z-score for CCN(CC)c1ccc(N2CC=CC34O[C@@H]5/C=C\CCC(C)OC(=O)C5[C@H]3C(=O)N(C(CO)C(C)C)[C@@H]4C2=O)cc1 (stereo partly specified) ?
## Result 0.12

## Task Would you kindly share the measured composite z-score for COCCCN1C(=O)[C@@]2(Cc3ccccc31)c1ccccc1C(=O)N(Cc1ccccc1C(F)(F)F)[C@H]2c1ccc(CO)cc1 ?
## Result -0.0485

## Task Would you kindly share the measured composite z-score for [N-]=[N+]=NCc1ccccc1C[C@@]1(C(=O)NCC(O)CO)N=C(c2ccc(OCCCO)cc2)O[C@@H]1c1ccccc1N=[N+]=[N-] (stereo partly specified) ?
## Result 1.78

## Task Would you kindly share the measured composite z-score for Cc1ccc(C(C)CC(O)C2C=CC3C(=O)N(c4ccccc4)C(=O)C3N2Nc2ccc([N+](=O)[O-])cc2)o1 (stereo unspecified) ?
## Result 1.69

## Task Would you kindly share the measured composite z-score for CC(C)(C)C(=O)N[C@@H](c1ccc(Cl)cc1)[C@]1(C)C[C@H]1C1CCCCC1 ?
## Result 2.09

## Task Would you kindly share the measured composite z-score for COc1ccc([Si](C)(C)[C@@H]2[C@@H](CCO)O[C@]3(C(=O)N(Cc4ccc(N5C(=O)COc6ccccc65)cc4)c4ccccc43)[C@H]2C)cc1 ?
## Result 1.01

## Task Would you kindly share the measured composite z-score for COCCOC(=O)N1C(=O)[C@@]2(c3cc(C#CC4=CCCCC4)ccc31)[C@H](c1ccc(O)cc1)N1[C@H](c3ccccc3)[C@H](c3ccccc3)OC(=O)[C@H]1[C@@H]2C(N)=O ?
## Result 0.324

## Task Would you kindly share the measured composite z-score for COC(=O)[C@@]1(Cc2ccc(F)cc2)[C@H]2c3cc(C(=O)N(C)C)n(Cc4nc5ccccc5[nH]4)c3C[C@H]2CN1C(=O)c1ccccc1 ?
## Result 2.13

====

method-notes: small-molecule microarray binders of probe aDKK1, primary screen, biochemical, biotinylated probe, 635/667 nm fluorescence (AID 1099);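 note: score merges 667nm spot fluorescence with signal to noise across triplicate slides; reference of the scale not given here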
test-context: higher = more signal
Label scheme for composite z-score: LOW: < 0.05; MID: ≥ 0.05 and < 1; HIGH: ≥ 1

## Task Exam item: assign O=C1OCCC/C=C\[C@H]2OC34C=CCN(Cc5ccccc5)C(=O)[C@H]3N(CCCCCCO)C(=O)[C@@H]4C12 (stereo not given in full) to the correct category.
## Result MID

## Task Exam item: assign O=C1c2ccccc2[C@](Cc2ccccc2I)(C(=O)NC2CC2)[C@H](c2ccc(CO)cc2)N1Cc1ccccc1 to the correct category.
## Result LOW

## Task Exam item: assign C=CC[C@]12N=C(c3ccc(OCCCO)cc3)O[C@H]1c1ccccc1N(Cc1ccccc1)C2=O to the correct category.
## Result HIGH

## Task Exam item: assign C=C[C@H](COC(C)=O)N(C(=O)OC(C)(C)C)S(=O)(=O)c1ccc(Br)cc1 to the correct category.
## Result HIGH

## Task Exam item: assign COc1ccc(C(O)C2C=CC3C(=O)NC(=O)C3N2Nc2ccccn2)c2ccccc12 (stereo not given) to the correct category.
## Result LOW

## Task Exam item: assign COC(=O)[C@@]1(Cc2ccc(OC)cc2)[C@H]2c3cc(C(=O)N(C)C)n(CCN4CNCC4=O)c3C[C@H]2CN1C(=O)c1ccccc1 to the correct category.
## Result LOW

## Task Exam item: assign C=CCN1C(=O)[C@]2(O[C@H](CCO)[C@@H]([Si](C)(C)c3ccc(OC)cc3)[C@@H]2C)c2cc(N3C(=O)c4cccc5cccc3c45)ccc21 to the correct category.
## Result LOW

## Task Exam item: assign C=CCN(Cc1ccccc1)C(=O)C(c1cccs1)N(CCOCCO)C(=O)/C=C\C(=O)O (stereo not given) to the correct category.
## Result MID

## Task Exam item: assign CCCCC=C[C@@H](NC(=O)Oc1cccc(C(F)(F)F)c1)c1ccccc1 to the correct category.
## Result HIGH

## Task Exam item: assign [N-]=[N+]=NCc1ccccc1C[C@@]1(C(=O)NCC(O)CO)N=C(c2ccc(OCCCO)cc2)O[C@@H]1c1ccccc1N=[N+]=[N-] (stereo not given in full) to the correct category.
## Result HIGH

====

Overview of reported composite z-score across a group of compounds:
method-notes: binders of probe aFSTL3 on microarray, primary screen, stem cell growth factor project, biochemical, small-molecule microarray, fluorescence 635/667 (AID 1064);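 note: measures binding of the biotinylated anti-FSTL3 antibody to printed compounds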
test-context: higher = more signal

Examples from the recorded data:
INSERT INTO results (compound, readout_name, observed_measurement) VALUES
  ('CC(C)(C)OC(=O)CC[C@@]12N=C(c3ccc(OCCCO)cc3)O[C@@H]1c1ccccc1N(CCS(=O)(=O)c1ccccc1)C2=O', 'composite z-score', 0.742),
  ('C=CC[C@@]1(C(=O)NCc2ccccc2)N=C(c2ccc(OCCCO)cc2)O[C@@H]1c1ccccc1N=[N+]=[N-]', 'composite z-score', 0.127),
  ('O=C1C2C=CC(C(O)C(c3ccccc3)c3ccccc3)N(n3cnnc3)C2C(=O)N1Cc1ccccc1 (configuration not stated)', 'composite z-score', -0.148),
  ('C[N+](C)(C)CCCCNC(=O)[C@H]1C[C@H]2C(=O)N[C@@H](Cc3ccccc3)C(=O)N2[C@H]1c1ccc(O)cc1', 'composite z-score', 0.288),
  ('CC(C)C(=C=CC[C@@H](O)c1ccccc1OCCO)CCO', 'composite z-score', -0.386);

## Task Would you kindly share the measured composite z-score for O=C(O)[C@@]1(CCS(=O)(=O)c2ccccc2)COC(c2ccc(OCCCO)cc2)=N1 ?
## Result 0.803

## Task Would you kindly share the measured composite z-score for COc1cc2c(cc1OC)CN(C(=O)[C@H]1[C@@H]3C(=O)O[C@@H](c4ccccc4)[C@@H](c4ccccc4)N3[C@@H](c3ccc(O)cc3)[C@]13C(=O)Nc1ccc(C#CC4=CCCCC4)cc13)CC2 ?
## Result -0.0904
